- TEST PROTOCOL: Plasma stability, rat plasma
- Format: in vitro ADME
- TEST CONTEXT: 2 h, 37 °C, 1 μM
MEASUREMENT KIND: Plasma Stability (% Remain, 2 h) Rat (% Remain)

{"MOLECULE": "CC1(C)C=Cc2c(C(=O)OCCCN3CCOCC3)c(O)c3ccccc3c2O1 [6e]", "READING UNIT": "% Remain", "RECORDED VALUE": 94}

(1) COC(=O)c1c2c(c3ccc(C)cc3c1O)OC(C)(C)C=C2 [14b]
(2) CC1(C)C=Cc2c(C(=O)OCCN3CCOCC3)c(O)c3cc(F)ccc3c2O1 [15a]
(3) COC(=O)c1c2c(c3ccc(F)cc3c1O)OC(C)(C)C=C2 [14a]
Sort by Plasma Stability (% Remain, 2 h) Rat, descending. Show the ranking through the labels, in the order asked for.
2, 3, 1

* * *

- TEST PROTOCOL: Plasma stability, human plasma
- Assay type: in vitro ADME
- TEST CONTEXT: 37 °C, 1 μM
MEASUREMENT KIND: Plasma Stability (% Remain, 2 h) Human (% Remain)

{"MOLECULE": "Cc1ccc2c3c(c(C(=O)OCCN4CCOCC4)c(O)c2c1)C=CC(C)(C)O3 [15b]", "MEASUREMENT KIND": "Plasma Stability (% Remain, 2 h) Human", "READING UNIT": "% Remain", "RECORDED VALUE": 100}
{"MOLECULE": "CN1CCC[C@@H]1COC(=O)c1c2c(c3ccccc3c1O)OC(C)(C)C=C2", "MEASUREMENT KIND": "Plasma Stability (% Remain, 2 h) Human", "READING UNIT": "% Remain", "RECORDED VALUE": 100}
{"MOLECULE": "CC1(C)C=Cc2c(C(=O)OCCN3CCOCC3)c(O)c3ccccc3c2O1", "MEASUREMENT KIND": "Plasma Stability (% Remain, 2 h) Human", "READING UNIT": "% Remain", "RECORDED VALUE": 97}
{"MOLECULE": "COC(=O)c1c2c(c3ccc(C)cc3c1O)OC(C)(C)C=C2 [14b]", "MEASUREMENT KIND": "Plasma Stability (% Remain, 2 h) Human", "READING UNIT": "% Remain", "RECORDED VALUE": 100}
{"MOLECULE": "CN1CCC(OC(=O)c2c3c(c4ccccc4c2O)OC(C)(C)C=C3)CC1", "MEASUREMENT KIND": "Plasma Stability (% Remain, 2 h) Human", "READING UNIT": "% Remain", "RECORDED VALUE": 100}
{"MOLECULE": "CC1(C)C=Cc2c(C(=O)OCCN3CCOCC3)c(O)c3cc(F)ccc3c2O1 [15a]", "MEASUREMENT KIND": "Plasma Stability (% Remain, 2 h) Human", "READING UNIT": "% Remain", "RECORDED VALUE": 100}
{"MOLECULE": "CC1(C)C=Cc2c(C(=O)OCCN3CCOCC3)c(O)c3cc(C(F)(F)F)ccc3c2O1 [15c]", "MEASUREMENT KIND": "Plasma Stability (% Remain, 2 h) Human", "READING UNIT": "% Remain", "RECORDED VALUE": 100}
{"MOLECULE": "CC1(C)C=Cc2c(C(=O)OCCCN3CCOCC3)c(O)c3ccccc3c2O1", "MEASUREMENT KIND": "Plasma Stability (% Remain, 2 h) Human", "READING UNIT": "% Remain", "RECORDED VALUE": 100}
{"MOLECULE": "CN1CCN(CCOC(=O)c2c3c(c4ccccc4c2O)OC(C)(C)C=C3)CC1", "MEASUREMENT KIND": "Plasma Stability (% Remain, 2 h) Human", "READING UNIT": "% Remain", "RECORDED VALUE": 79}

* * *

- Tested on: IL-6-induced adhesion of U937 monocytic cells to HT-29 cells
- TEST PROTOCOL: IL-6-induced colonic epithelial cell adhesion assay
- Format: cell-based, human
- TEST CONTEXT: Homo sapiens, Epithelial cell, 10 uM; U937 adhesion to HT-29 cells, IL-6-induced
MEASUREMENT KIND: inhibition at 10 µM (%)
Expressed in %, but write only the number.

{"MOLECULE": "CN(C)CCCOC(=O)c1c2c(c3ccccc3c1O)OC(C)(C)C=C2", "inhibition at 10 µM, %": 34.8}
{"MOLECULE": "CC1(C)C=Cc2c(C(=O)OCCN3CCCC3)c(O)c3ccccc3c2O1", "inhibition at 10 µM, %": 12.4}
{"MOLECULE": "CN1CCN(CCCOC(=O)c2c3c(c4ccccc4c2O)OC(C)(C)C=C3)CC1", "inhibition at 10 µM, %": 27.6}
{"MOLECULE": "CC1(C)C=Cc2c(C(=O)OCCCN3CCOCC3)c(O)c3ccccc3c2O1", "inhibition at 10 µM, %": 26.6}
{"MOLECULE": "Cc1ccc2c3c(c(C(=O)OCCN4CCOCC4)c(O)c2c1)C=CC(C)(C)O3 [15b]", "inhibition at 10 µM, %": 54.3}

# next molecule below
Lab note: IL-6-induced adhesion of U937 monocytic cells to HT-29 cells assay, enter inhibition at 10 µM for `CN1CCN(CCOC(=O)c2c3c(c4ccccc4c2O)OC(C)(C)C=C3)CC1` here
18.2

* * *

- TARGET ENTITY: CYP1A2 (Homo sapiens)
- Construct: from tissue; host or cells: human liver microsomes
- Sequence (P05177 1-516): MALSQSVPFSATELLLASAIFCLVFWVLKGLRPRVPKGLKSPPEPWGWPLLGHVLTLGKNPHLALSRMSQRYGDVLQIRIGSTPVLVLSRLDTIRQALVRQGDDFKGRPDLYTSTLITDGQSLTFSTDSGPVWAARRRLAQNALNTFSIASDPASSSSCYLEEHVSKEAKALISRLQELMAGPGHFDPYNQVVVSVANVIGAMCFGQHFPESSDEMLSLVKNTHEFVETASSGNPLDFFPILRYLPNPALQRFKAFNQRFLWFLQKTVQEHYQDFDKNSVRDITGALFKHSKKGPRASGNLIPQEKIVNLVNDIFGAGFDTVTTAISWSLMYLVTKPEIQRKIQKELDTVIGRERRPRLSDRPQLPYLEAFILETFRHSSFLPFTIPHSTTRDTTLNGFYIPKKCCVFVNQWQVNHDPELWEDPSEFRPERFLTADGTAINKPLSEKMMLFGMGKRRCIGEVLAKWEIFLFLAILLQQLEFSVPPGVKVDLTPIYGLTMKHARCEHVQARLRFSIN
- TEST PROTOCOL: CYP inhibition assay, CYP1A2
- Type: in vitro ADME
- TEST CONTEXT: human, liver microsomes, pH 7.4, probe phenacetin (O-deethylation); at 10 μM drug concentration; read-out: % inhibition of CYP 1A2
MEASUREMENT KIND: inhibition at 15 min, 10 μM

Supply inhibition at 15 min, 10 μM value. Item: CC1(C)C=Cc2c(C(=O)OCCN3CCOCC3)c(O)c3cc(C(F)(F)F)ccc3c2O1 [15c]
< 50%

* * *

- TEST PROTOCOL: Metabolic stability, dog liver microsomes
- Assay type: in vitro ADME
- TEST CONTEXT: 30 min, 1 μM
MEASUREMENT KIND: Metabolic Stability (% Remain, 30 min) Dog (% Remain)

(A) COC(=O)c1c2c(c3ccccc3c1O)OC(C)(C)C=C2
(B) CC1(C)C=Cc2c(C(=O)OCCN3CCOCC3)c(O)c3cc(C(F)(F)F)ccc3c2O1 [15c]
(C) CC1(C)C=Cc2c(C(=O)OCCN3CCOCC3)c(O)c3cc(F)ccc3c2O1 [15a]
Reorder the records above by Metabolic Stability (% Remain, 30 min) Dog so that values decrease. Show the ranking through the labels, in the order asked for.
B, A, C
(B: 86 % Remain, A: 33 % Remain, C: 10 % Remain)

(a) CC1(C)C=Cc2c(C(=O)OCCCN3CCOCC3)c(O)c3ccccc3c2O1
(b) CN1CCC[C@@H]1COC(=O)c1c2c(c3ccccc3c1O)OC(C)(C)C=C2
Between the entries labeled a and b , whose measured Metabolic Stability (% Remain, 30 min) Dog is lower? State the label of the item chosen.
b
(b: 12 % Remain, a: 42 % Remain)

(P) COC(=O)c1c2c(c3ccc(C(F)(F)F)cc3c1O)OC(C)(C)C=C2 [14c]
(Q) CNC(=O)c1c2c(c3ccccc3c1O)OC(C)(C)C=C2
Between the entries labeled P and Q , whose measured Metabolic Stability (% Remain, 30 min) Dog is lower? State the label of the item chosen.
Q

* * *

- TEST PROTOCOL: Metabolic stability, human liver microsomes
- Assay type: in vitro ADME
- TEST CONTEXT: 1 μM
MEASUREMENT KIND: Metabolic Stability (% Remain, 30 min) Human (% Remain)

{"COMPOUND": "CC1(C)C=Cc2c(C(=O)OCCN3CCOCC3)c(O)c3ccc(F)cc3c2O1 [15d]", "READING UNIT": "% Remain", "RECORDED VALUE": 48}
{"COMPOUND": "CN1CCC(OC(=O)c2c3c(c4ccccc4c2O)OC(C)(C)C=C3)CC1 [6g]", "READING UNIT": "% Remain", "RECORDED VALUE": 78}
{"COMPOUND": "CN1CCC[C@@H]1COC(=O)c1c2c(c3ccccc3c1O)OC(C)(C)C=C2 [6f]", "READING UNIT": "% Remain", "RECORDED VALUE": 58}
{"COMPOUND": "COC(=O)c1c2c(c3ccc(C)cc3c1O)OC(C)(C)C=C2 [14b]", "READING UNIT": "% Remain", "RECORDED VALUE": 88}

(a) CN1CCN(CCOC(=O)c2c3c(c4ccccc4c2O)OC(C)(C)C=C3)CC1 [6h]
(b) CC1(C)C=Cc2c(C(N)=O)c(O)c3ccccc3c2O1 [6k]
Between the entries labeled a and b , whose measured Metabolic Stability (% Remain, 30 min) Human is lower? State the label of the item chosen.
b
(b: 10 % Remain, a: 76 % Remain)

# credit: paper PMC6222789
